Origin of values: the Human Domainome abundance scans (Beltran et al. 2025)

B1: REST corepressor 3, residues 87 to 134; numbered along this chain, Q9P2K3 (parent)
chain: DEWTVEDKVLFEQAFSFHGKSFHRIQQMLPDKTIASLVKYYYSWKKTR

Variants of: B1
measurement.description: abundance fitness (aPCA) (normalised: wild type 0, dead -1); higher = more abundant; growth selection in yeast, the domain comes from the species named
experimental.context: Homo sapiens
Entry flag: Y if abundance fitness reaches -0.7; N if it does not.

Evaluate DEWTVEDKVLFEQALSFHGKSFHRIQQMLPDKTIASLVKYYYSWKKTR [F15L] : abundance fitness at minimum -0.7? Y

Evaluate DEWTVEDKVLFEQAFSFHGKSFHRISQMLPDKTIASLVKYYYSWKKTR [Q26S] : abundance fitness at minimum -0.7? N

Evaluate DEWTVEDKVLFEQAFSFHGKSFHRIQQMLPDKTIASLVKGYYSWKKTR [Y40G] : abundance fitness at minimum -0.7? N

Evaluate DEWTVEDKVSFEQAFSFHGKSFHRIQQMLPDKTIASLVKYYYSWKKTR [L10S] : abundance fitness at minimum -0.7? N

Evaluate DEWTVEDKVLFEQAFSFHGKSFHRIQQMLPDKTIASSVKYYYSWKKTR [L37S] : abundance fitness at minimum -0.7? N

Evaluate DEWTVEDKVLFEQAFSFHGKSFHRIQQMLPDKTIASLVKYYYSWQKTR [K45Q] : abundance fitness at minimum -0.7? Y

Evaluate DEWTVEDKVLFEQAFSFHGKSFHRIQQMLPDKTIASLVNYYYSWKKTR [K39N] : abundance fitness at minimum -0.7? Y

Evaluate DEWTVEDKVLFEQAFSFHGKSFHRIQQMLMDKTIASLVKYYYSWKKTR [P30M] : abundance fitness at minimum -0.7? N

Evaluate DEWTVEDKVLFEQAFSFHGKSFHRIQQMLPDKTTASLVKYYYSWKKTR [I34T] : abundance fitness at minimum -0.7? Y

Evaluate DEWTVEDKVLFEQAFSKHGKSFHRIQQMLPDKTIASLVKYYYSWKKTR [F17K] : abundance fitness at minimum -0.7? Y

Evaluate DEWTVEDKVLFEQIFSFHGKSFHRIQQMLPDKTIASLVKYYYSWKKTR [A14I] : abundance fitness at minimum -0.7? Y

Evaluate DEWTVEDKVLFEQAFSFHGKSFHRIQQMLPDKTIASLVKYYYSWSKTR [K45S] : abundance fitness at minimum -0.7? Y

Evaluate DEWTVEDKVLFEQAFSFHGKSFRRIQQMLPDKTIASLVKYYYSWKKTR [H23R] : abundance fitness at minimum -0.7? Y

Evaluate DEWTVEDKVLFEQAFSFHGKSFHRIQQMLPDATIASLVKYYYSWKKTR [K32A] : abundance fitness at minimum -0.7? N

Evaluate DEWTVEDKVLFEQAFSFHGKSFHRIQQQLPDKTIASLVKYYYSWKKTR [M28Q] : abundance fitness at minimum -0.7? Y

Evaluate DEWTVEDKVLFEQAFSNHGKSFHRIQQMLPDKTIASLVKYYYSWKKTR [F17N] : abundance fitness at minimum -0.7? Y

Evaluate DEWTVEDKVLFEQAFSFHGKSFHRIQQMLPDKTKASLVKYYYSWKKTR [I34K] : abundance fitness at minimum -0.7? Y

Evaluate DEWTVEDKVLFEGAFSFHGKSFHRIQQMLPDKTIASLVKYYYSWKKTR [Q13G] : abundance fitness at minimum -0.7? N

Evaluate DEWTVEDKVLFEQAFSFHGKSFHRIQQMLPDKSIASLVKYYYSWKKTR [T33S] : abundance fitness at minimum -0.7? Y

Evaluate DAWTVEDKVLFEQAFSFHGKSFHRIQQMLPDKTIASLVKYYYSWKKTR [E2A] : abundance fitness at minimum -0.7? N
